assay: mammalian cell cytotoxicity, dose response, cytotoxicity control for M. tuberculosis inhibitor project (AID 435019); conditions: cytotoxicity counter-screen; series mostly up to 40 µM;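 note: lower values mean fewer viable cells so more cytotoxicity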
Screen size: about 2,300 compounds; about 1,200 (52%) were called active. So high a share suggests a set chosen from earlier hits. Some of the results follow. Results with a measured potency or affinity are listed apart.
measured metric: outcome

[
  {
    "structure smiles": "O=C(/C=C/c1ccco1)Oc1ccc(C(=S)N2CCOCC2)cc1",
    "measured metric": "outcome",
    "reported": "inactive"
  },
  {
    "structure smiles": "N[C@@H](CCl)C(=O)O",
    "measured metric": "outcome",
    "reported": "inactive"
  },
  {
    "structure smiles": "CCCC(=O)OCCNc1cc(SCCC(=O)OC)c2nonc2c1[N+](=O)[O-]",
    "measured metric": "outcome",
    "reported": "inactive"
  },
  {
    "structure smiles": "CCCCn1nc(C(=O)Nc2ccccc2N2CCCC2)c2ccccc2c1=O",
    "measured metric": "outcome",
    "reported": "inactive"
  },
  {
    "structure smiles": "C/C(=N\\NC(N)=S)c1ccc(Cl)s1",
    "measured metric": "outcome",
    "reported": "inactive"
  },
  {
    "structure smiles": "O=C(CCCC(=O)OCC(=O)c1cccs1)Nc1ccc(Oc2ccccc2)cc1",
    "measured metric": "outcome",
    "reported": "inactive"
  }
]

###

assay: mammalian cell cytotoxicity, dose response, cytotoxicity control for M. tuberculosis inhibitor project (AID 435019); conditions: cytotoxicity counter-screen; series mostly up to 40 µM;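 note: lower values mean fewer viable cells so more cytotoxicity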
In all, about 2,300 compounds went through this assay and about 1,200 (52%) were called active. The set was probably picked from earlier hits. The list shows a part of the results. Potency and affinity values are given separately.

[
  {
    "compound": "O=[N+]([O-])c1cc(C=Nc2ccc3ccccc3c2)ccc1Br",
    "outcome": "inactive"
  },
  {
    "compound": "CCOC(=O)CNC(=O)C(Cc1ccccc1)NC(=O)OCc1ccccc1 (stereo not given)",
    "outcome": "inactive"
  },
  {
    "compound": "Cc1ccc(NC(=O)Cn2ccsc2=N)c([N+](=O)[O-])c1",
    "outcome": "inactive"
  },
  {
    "compound": "O=C(Nc1ccc(C2=NCCN2)cc1)c1ccc(Cl)c(C(=O)Nc2ccc(C3=NCCN3)cc2)c1",
    "outcome": "inactive"
  },
  {
    "compound": "Cc1ccsc1/C=C1\\SC(N2CCOCC2)=NC1=O",
    "outcome": "inactive"
  },
  {
    "compound": "CCOC(=O)c1nnc(-c2ccccc2)nc1NCc1ccccc1",
    "outcome": "inactive"
  },
  {
    "compound": "CCOc1ccc(C2=Nc3ccc(Br)cc3C(c3ccc(N4CCOCC4)cc3)=NN2)cc1",
    "outcome": "inactive"
  },
  {
    "compound": "O=C(c1ccccc1)c1nn(-c2ccc(Cl)cc2)cc1C(=O)c1cc2ccccc2oc1=O",
    "outcome": "inactive"
  },
  {
    "compound": "O=C(/C=C/c1ncc(C(F)(F)F)cc1Cl)OCc1ccccc1",
    "outcome": "inactive"
  },
  {
    "compound": "CCOC(=O)N1CCN(C(=O)CSc2nnc(-c3ccc(Cl)s3)o2)CC1",
    "outcome": "inactive"
  }
]
